The measured values listed here are drawn from the supplement of paper PMC11865577.

tested on: TO-N3 (biotin conjugate); test: pull-down binding Z-score (relative to library population); higher = stronger binding; conditions: RNA library: Library-2
Where pull-down binding Z-score equals or exceeds -0.4, the correct label is Fulfilled; where it does not, the label is Not fulfilled.

>>> class("GGUGCAGUCAGUCCUAGCUC [hsa-mir-3135b]")
"Fulfilled"
>>> class("GGUAAUUAUACAGUUUCCUGUUUACCUUUUACAAUUAAUUGCC [SHAPE_invitro_SARS-CoV-2_Motif_513]")
"Not fulfilled"
>>> class("CGUUCGCUUUAUUUAUGGCGCACA [hsa-mir-323a]")
"Fulfilled"
>>> class("AGAGCACCUCCUAGAGAAUGUUGAACUAAAGGUGCCC [hsa-mir-4723]")
"Fulfilled"
>>> class("ACUCCUAGGUCACGGAAGU [hsa-mir-6838]")
"Fulfilled"
>>> class("CUCCAAAAAGAG")
"Not fulfilled"
>>> class("GGGAGCAUGAACAAUGUUUCUCACUCCC [hsa-mir-3162]")
"Fulfilled"
>>> class("UGCCUUCAAACUCAACAUUAAAUUGUUGGGUGUUGGUGGCA")
"Not fulfilled"
>>> class("AGAUCCUGUCUUUCGUAAUCAGCAGCU [hsa-mir-222]")
"Fulfilled"
>>> class("GAAGCUGUGAAGCCACAGAUGGGCUUU [hsa-mir-30a]")
"Fulfilled"
>>> class("UCCAAGAACUUGGA")
"Not fulfilled"
>>> class("AGGCCUGAGUCUCUCUGCUGCAGAUGGGCUC [hsa-mir-422a]")
"Fulfilled"
>>> class("CUGGGGGAAGGCUCCAGACCCCAGCCU [hsa-mir-4267]")
"Fulfilled"
>>> class("GUACAUGGGCACACUUUCUUAUGAACAAUUUAAGAAAGGUGUUCAGAUACCUUGUAC [SHAPE_invitro_SARS-CoV-2_Motif_110]")
"Not fulfilled"
>>> class("UGGUGUUAGAAGGUCCUUUUAUGUCUAUGCUAAUGGAGGUAAAGGCUUUUGCAAACUA [SHAPE_invitro_SARS-CoV-2_Motif_149]")
"Not fulfilled"
>>> class("UGUUUAUGUUAUUUAUGGUUAAACA [hsa-mir-376c]")
"Not fulfilled"
>>> class("AGUCAGACAAAUCGCUCCAGGGCAAACUGGAAAGAUUGCUGAUU")
"Fulfilled"
>>> class("CGAUAAACCCCUAAAUAGGGACUUUCCCG [hsa-mir-484]")
"Not fulfilled"
>>> class("GCAGUCCUGUGGGAAUGAGAGAUGCCAAACUGGACCUGC [hsa-mir-3972]")
"Fulfilled"
>>> class("UAUGAGGUUUAGAAGAGCUUUUGGUGAAUACAGUCAUGUAGUUGCCUUUAAUACUUUACUAUUCCUUAUG")
"Not fulfilled"
>>> class("AAGUCCGGCUCCAGAACCUGGACACCGCUCAG [hsa-mir-4638]")
"Fulfilled"
>>> class("GUGUACAGGGAGGAGACUGUACGUGAGAGAUAGUCAGAUCCGCAUGUUAGAGCAGAGUCUCCUUCGUGUACAG [hsa-mir-4441]")
"Fulfilled"
>>> class("CUCUUGAUAGCAGACAU [hsa-mir-4775]")
"Fulfilled"
>>> class("GGCAGGUGUGGUUGGAGGAAGCAGCCUGAACCUGCC [hsa-mir-6778]")
"Fulfilled"
>>> class("AGCCAAAAUCACCAGGGA [hsa-mir-4534]")
"Fulfilled"
>>> class("GGCAUCAUAUGGGUUGCAACUGAGGGAGCCUUGAAUACACCAAAAGAUCACAUUGGCACCCGCAAUCCUGCUAACAAUGCU [DMSMaPseq_invitro_SARS-CoV-2_Motif_513]")
"Fulfilled"
>>> class("CUUACUGACAAUGUAUACAUUAAAAAUGCAGACAUUGUGGAAG [DMSMaPseq_invitro_SARS-CoV-2_Motif_59]")
"Fulfilled"
>>> class("GGAAUAGUGCUCCUGGUUGUUUC [hsa-mir-1180]")
"Fulfilled"
>>> class("GGGGCCGGGGCCGGGGCCGGGGCCGGGGCCGGGGCC [G4_r(GGGGCC)8]")
"Fulfilled"

----------
Below, each entry is listed alongside its reported pull-down binding Z-score.
system: TO-N3 (biotin conjugate); experiment: pull-down binding Z-score (relative to library population); higher = stronger binding; settings: RNA library: Library-2
readout_kind: pull-down binding Z-score

>>> test_result("CUGGGUUCUUAGAGGCCUAAUCCUCUACAAACUCAGUUU [hsa-mir-4305]")
0.144
>>> test_result("GAUCAGUUUCACCUAAACUGUUC")
-1.46
>>> test_result("GAAGUCACACCUUC [SHAPE_invitro_SARS-CoV-2_Motif_534]")
-0.137
>>> test_result("UUUGCCAUUAUAAUGGCAAA [hsa-mir-548ae-1]")
-1.37
>>> test_result("UGUGGUCACCCACUCU [hsa-mir-4316]")
0.0225
>>> test_result("GACGUCCAAUCUCUUUGGGACGCC [hsa-mir-2682]")
0.419
>>> test_result("UGGUUGGUUGGUUGGUUGGUUGGUUGGUUGGU [G4_r(UGGU)8]")
7.53
>>> test_result("CAUUUCAGCGUAUAUAUGUAUAUGUGGCUGUG [hsa-mir-19b-2]")
1.11
>>> test_result("GGCACCUACGAUACCCAGUGCC [hsa-mir-3116-2]")
-0.383
>>> test_result("CUUUUGGAAAAUAGAAAAG [hsa-mir-3184]")
-0.433

----------
system: TO-N3-2 (biotin conjugate); test: pull-down binding Z-score (relative to library population); higher = stronger binding; settings: RNA library: Library-2
Where pull-down binding Z-score equals or exceeds 0.2, the correct label is y; where it does not, the label is n.

>>> class("UAAGUGUCCUAGCACUUA [hsa-mir-374b]")
"n"
>>> class("CAGCCCUGCACUGAAC [hsa-mir-614]")
"y"
>>> class("CCUUACCCAGAUCCAUCAAGAAUCCUAGGGGCCGG")
"y"
>>> class("UGGAGUCAGUAUUGGUCUGGCCA [hsa-mir-4255]")
"y"
>>> class("CACUCUCCCUAAUGGGGCUGAAGACAGCUCAGGGGCAGGGUG [hsa-mir-4472-1]")
"n"
>>> class("UGUUGACUGAAUAAUAAACA [hsa-mir-3139]")
"n"

----------
system: G-clamp-N3 (biotin conjugate); assay: pull-down binding Z-score (relative to library population); higher = stronger binding; conditions: RNA library: Library-1 (pre-miRNA loops + repeats)
readout_kind: pull-down binding Z-score

>>> test_result("GAGACUGCCCAAAGACUCUUCAGUAUC [hsa-mir-2681]")
-0.411
>>> test_result("AAAAUGUUUGUCAUAAACCGUUUU [hsa-mir-335]")
-0.914
>>> test_result("CUCUGGUCAGUUGGGAGUCUGAG [hsa-mir-143]")
0.448
>>> test_result("CCUGCCUGCCCUCCAGGUCAUGUUCCAGUGUCCCACAGAUGCAGCACCACGG [hsa-mir-6075]")
-0.799
>>> test_result("GGUUCUUCCCGAAGC [hsa-mir-4710]")
0.205
>>> test_result("GGUUCAAGUUUGGCUCCAUCUUUAUGAAA [hsa-mir-4506]")
-0.636
>>> test_result("AUGGUUCCUAUUCUGAUCAAUAAACAUGGUUUGAGCCUAGUUACAAUGAUCUAAAAUUCACGGUCCAA [hsa-mir-548o]")
-1.15
>>> test_result("ACAUUUGCAACCUGUGAAGAUGCAAAACUUUAAGUGU [hsa-mir-2053]")
-0.673
>>> test_result("GCAGCUAGUAAUAUGAGCCCAGUUGC [hsa-mir-153-2]")
-0.831
>>> test_result("UUGCCCAA [hsa-mir-548bb]")
0.764
>>> test_result("AUCUCCUUUAGGAAAACCUUCUGUGGGGAGU [hsa-mir-1296]")
-0.272
>>> test_result("AAUAAAGUAUGUCCACAGCUGAAAGGACAUACUUUAUU [hsa-mir-4464]")
-0.77
>>> test_result("GCCGGAGCGGGC [hsa-mir-1181]")
1.74
>>> test_result("AGUGCCUCACAGCCGCACAGGACCGAGGAUGCU [hsa-mir-4737]")
0.613
>>> test_result("GGGGAGAGGGACACGCCCUGGGCUCUGCCCAGGGUGCAGCCGGACUGACUGAG [hsa-mir-1225]")
1.58
>>> test_result("CACUCCCGUGCUUGUCCGAGGAGGGAGG [hsa-mir-149]")
1.29
>>> test_result("UUCUGCUGAAGACUGGUCUCUUCAUGUGUGAG [hsa-mir-6133]")
-0.872

----------
test system: G-clamp-N3 (biotin conjugate); assay: pull-down binding Z-score (relative to library population); higher = stronger binding; conditions: RNA library: Library-1 (pre-miRNA loops + repeats)
The following ranges of pull-down binding Z-score define the classes used here: low: < -0.4; moderate: ≥ -0.4 and < 0.4; high: ≥ 0.4

>>> class("CGCCCGACUUCGGGG [hsa-mir-4767]")
"high"
>>> class("UCCUGAGCUAGGAGGAUUAGGA [hsa-mir-5093]")
"high"
>>> class("CACCAGCCAGGCAUUGCUCAGCCCGUUUCCCUCUGGGGGAGCAAGGAGUGGUGCUGGGUUUGUC [hsa-mir-593]")
"moderate"
>>> class("ACUUAAGCACCAGGUAAAAUCUGGUGCUUAAGU [hsa-mir-4720]")
"moderate"
>>> class("GGGCCGUGCACCCGUGGGCCCC [hsa-mir-1915]")
"high"
>>> class("GCGUCACGUGCACCCAAGUGACGC [hsa-mir-6786]")
"moderate"
>>> class("GUGAUAGUAAUAAAGUCUCAU [hsa-mir-135a-2]")
"moderate"
>>> class("CCCUGGUCAGACUCUCCGGGG [hsa-mir-4675]")
"low"
>>> class("CCCACGGCCCUUGUCAGUGUG [hsa-mir-3190]")
"low"
>>> class("GGCCCCAGGAAGAAGGGCCUGGUGGAGCC [hsa-mir-6743]")
"high"
>>> class("GCUGGGCUGAGCUAACCAGGGCUGGGCUGAGC [hsa-mir-4537]")
"high"
>>> class("UGGAGCUAGACCACAUGGGUUCA [hsa-mir-5100]")
"low"
>>> class("UCAGACACAUCAGAUCCCUUAUCUGUAAAAUGGGCAUGA [hsa-mir-640]")
"moderate"
>>> class("AUCAUGUAUAAUUAAAAAUGAU [hsa-mir-509-2_509-3_509-1]")
"low"
>>> class("CUGGUAGUAUAAAACCCAG [hsa-mir-934]")
"high"
>>> class("CCAUGGUGUGCUCUGAUCCCCCUGUGG [hsa-mir-6848]")
"moderate"
>>> class("GAAGGGGAGUUUCCCUCUAUUCCCUUC [hsa-mir-3679]")
"low"
>>> class("ACCUCCUGGCUUUUCCUCUGCAGCAUGGCUCGGACCUAGUGCAAUGUUUAAGCU [hsa-mir-6826]")
"low"
>>> class("AGGAGAAGGUGAGACCAAUGUCCUGGGUGCCACUCCU [hsa-mir-6124]")
"high"
>>> class("CAGUUGUACUGUGGCUG [hsa-mir-1291]")
"moderate"
>>> class("GUCUCGGUCCUUUGGAACGUGGC [hsa-mir-4470]")
"moderate"
>>> class("GGAGACCCUAUACAUACCUGUUUCC [hsa-mir-5581]")
"low"
>>> class("UGAGUGCCGACUGGCGCCUG [hsa-mir-4750]")
"moderate"
>>> class("GGUGGCAAUCAAGGUCUAGCCACC [hsa-mir-4733]")
"high"
>>> class("GCUCCCAACCAACCACUUCCACAUGUUUUGCUGGU [hsa-mir-4451]")
"low"
>>> class("CGUGCUCAGCUUGGCACCCAAGUUCUGC [hsa-mir-7704]")
"moderate"
>>> class("GGAAGGGAGCCCCAUUUACAGUGGUAACUUCCUUUCC [hsa-mir-5006]")
"moderate"
>>> class("GGGAGGUAAGAAGUCUCUGACUCCU [hsa-mir-5193]")
"high"
>>> class("UUUGCCGUUAAAAGUAAUGGCA [hsa-mir-548a-2]")
"low"
>>> class("GUUUGCCUGUUAAUGAAUUCAAAC [hsa-mir-3129]")
"low"
>>> class("GAGUUUGGGAUUUGAAAAAACC [hsa-mir-181a-2]")
"high"
>>> class("AGUUGGACACUCCAUGUGGUAGAGUGUC [hsa-mir-223]")
"high"
>>> class("CACAAAUAUGGCUCUUUGUG [hsa-mir-4474]")
"low"
>>> class("ACUACUGUACUUUACAGCUAGCAGU [hsa-mir-301a]")
"moderate"
